# system.tested: N-Hsp90/Cdc37 (Homo sapiens)
# Construct: only the N-terminal ATP-ase domain of Hsp90 (N-Hsp90, residues 1-223)
# protocol.text: N-Hsp90/Cdc37 split Renilla luciferase assay (N-terminal Hsp90 fragment, residues 1-223)
# stated.conditions: cell lysate
For each entry below, report its IC50 value.
Reply with a number, then the unit it belongs to.

Documented IC50 of O=C(CSS(=O)(=O)O)Nc1cccc(C(F)(F)F)c1 : 94 µM

Item: O=C(CSc1nc2ccccc2s1)c1ccc(O)c(O)c1 | IC50: 64 µM

What the record says about O=C(O[C@@H]1Cc2c(O)cc(O)cc2O[C@@H]1c1ccc(O)c(O)c1)c1cc(O)c(O)c(O)c1 : IC50 is 4.8 µM

Cc1ccc(Nc2ccc(C(=O)O)cc2N)cc1 yielded IC50 of 322 µM

IC50 recorded for this molecule, CCOc1ccc(C(=O)c2ccc(O)c(O)c2O)cc1 [×1540, 2,3,4-TRIHYDROXY-4'-ETHOXYBENZOPHENONE] , is 44 µM

For reference, reported IC50 for O=C(O[C@@H]1Cc2c(O)cc(O)cc2O[C@@H]1c1cc(O)c(O)c(O)c1)c1cc(O)c(O)c(O)c1 [compound 3, Epigallocatechin gallate] stands at 57 µM

The recorded IC50 for C/C1=C\[C@H](C)C[C@H](C)[C@H](Cc2cnco2)OC(=O)/C(C)=C/[C@H](C)C[C@H](C)[C@H](Cc2cnco2)OC1=O [conglobatin A, reference compound] is 4.5 µM
